These data points were gathered from BigSolDB 2.1.

Conditions: in n-butanol, 283.53 K
endpoint name: solubility (mole fraction)
Note: the reply should be a number with no unit written.

Noted for CO/N=C(\C(=O)Sc1nc2ccccc2s1)c1csc(N)n1 : its solubility (mole fraction) reads 0.00032

====

Settings: in n-propanol, 293.17 K
endpoint name: solubility (mole fraction)
Form rule: numeric answer, no unit written next to it.

get_value(item= CO/N=C(\C(=O)Sc1nc2ccccc2s1)c1csc(N)n1 , readout=solubility (mole fraction)) returns 0.000414

====

Conditions: in isobutanol, 297.77 K
endpoint name: solubility (mole fraction)

// CO/N=C(\C(=O)Sc1nc2ccccc2s1)c1csc(N)n1 : solubility (mole fraction) value = 0.000345

====

Details: in isobutanol, 283.07 K
endpoint name: solubility (mole fraction)
A bare number is all that is needed in reply.

The compound CO/N=C(\C(=O)Sc1nc2ccccc2s1)c1csc(N)n1 showed solubility (mole fraction) equal to 0.000171

====

Conditions: in n-propanol, 277.85 K
endpoint name: solubility (mole fraction)

Quick note, solubility (mole fraction) for CO/N=C(\C(=O)Sc1nc2ccccc2s1)c1csc(N)n1 landed at 0.000226

====

Conditions: in ethanol, 303.09 K
endpoint name: solubility (mole fraction)
Number only, no unit.

Per the records, this molecule ( CO/N=C(\C(=O)Sc1nc2ccccc2s1)c1csc(N)n1 ) has solubility (mole fraction) equal to 0.000688

====

Conditions: in n-propanol, 297.97 K
endpoint name: solubility (mole fraction)
// return just the number, without any unit appended

Given item CO/N=C(\C(=O)Sc1nc2ccccc2s1)c1csc(N)n1 , the value recorded as its solubility (mole fraction) is 0.000544

====

Conditions: in isopentanol, 283.07 K
endpoint name: solubility (mole fraction)
Reply with the value as a number alone.

According to the records, this compound CO/N=C(\C(=O)Sc1nc2ccccc2s1)c1csc(N)n1 displays solubility (mole fraction) of 0.000215

====

Conditions: in n-pentanol, 283.33 K
endpoint name: solubility (mole fraction)

CO/N=C(\C(=O)Sc1nc2ccccc2s1)c1csc(N)n1 yielded solubility (mole fraction) of 0.00034

====

Conditions: in n-propanol, 288.13 K
endpoint name: solubility (mole fraction)
Number only, please.

Recorded solubility (mole fraction) (compound CO/N=C(\C(=O)Sc1nc2ccccc2s1)c1csc(N)n1 ): 0.000332

====

Conditions: in n-pentanol, 288.15 K
endpoint name: solubility (mole fraction)

Kindly note the recorded solubility (mole fraction) for CO/N=C(\C(=O)Sc1nc2ccccc2s1)c1csc(N)n1 , which is 0.000433

====

Details: in isopentanol, 302.63 K
endpoint name: solubility (mole fraction)
Answer using only a numeral; do not append any unit.

Recorded solubility (mole fraction) (compound CO/N=C(\C(=O)Sc1nc2ccccc2s1)c1csc(N)n1 ): 0.000622

====

Settings: in ethanol, 293.09 K
endpoint name: solubility (mole fraction)
Give only the figure.

According to the records, this compound CO/N=C(\C(=O)Sc1nc2ccccc2s1)c1csc(N)n1 displays solubility (mole fraction) of 0.000399

====

Settings: in isobutanol, 292.79 K
endpoint name: solubility (mole fraction)
Give the figure only, with no unit attached.

Lab book: solubility (mole fraction) of CO/N=C(\C(=O)Sc1nc2ccccc2s1)c1csc(N)n1 noted as 0.000268

====

Settings: in n-pentanol, 293.23 K
endpoint name: solubility (mole fraction)

get_value(item= CO/N=C(\C(=O)Sc1nc2ccccc2s1)c1csc(N)n1 , readout=solubility (mole fraction)) returns 0.000564

====

Conditions: in isopentanol, 277.65 K
endpoint name: solubility (mole fraction)
// return a plain number; no unit text

The recorded solubility (mole fraction) for CO/N=C(\C(=O)Sc1nc2ccccc2s1)c1csc(N)n1 is 0.000183

====

Details: in isopentanol, 288.37 K
endpoint name: solubility (mole fraction)

Per the record, CO/N=C(\C(=O)Sc1nc2ccccc2s1)c1csc(N)n1 has solubility (mole fraction) of 0.000286

====

Conditions: in n-butanol, 297.73 K
endpoint name: solubility (mole fraction)
# print the numeric value only

Form: compound = CO/N=C(\C(=O)Sc1nc2ccccc2s1)c1csc(N)n1 ; solubility (mole fraction) = 0.000662

====

Conditions: in isopropanol, 303.13 K
endpoint name: solubility (mole fraction)
# output: bare number, no unit

Reported solubility (mole fraction) ( CO/N=C(\C(=O)Sc1nc2ccccc2s1)c1csc(N)n1 ) = 0.000365

====

Conditions: in ethanol, 298.17 K
endpoint name: solubility (mole fraction)
Lab note: record the figure alone, no unit after it.

solubility (mole fraction) measured on CO/N=C(\C(=O)Sc1nc2ccccc2s1)c1csc(N)n1 = 0.000517

====

Conditions: in isopropanol, 277.91 K
endpoint name: solubility (mole fraction)
Please reply with the number alone, leaving off any unit.

Value of solubility (mole fraction) reported for the compound CO/N=C(\C(=O)Sc1nc2ccccc2s1)c1csc(N)n1 is 0.000116

====

Conditions: in isobutanol, 287.99 K
endpoint name: solubility (mole fraction)

The compound CO/N=C(\C(=O)Sc1nc2ccccc2s1)c1csc(N)n1 showed solubility (mole fraction) equal to 0.000206

====

Conditions: in n-butanol, 288.37 K
endpoint name: solubility (mole fraction)

Form: compound = CO/N=C(\C(=O)Sc1nc2ccccc2s1)c1csc(N)n1 ; solubility (mole fraction) = 0.000424

====

Details: in n-pentanol, 303.15 K
endpoint name: solubility (mole fraction)
Hey, just send me the number, nothing else.

Entry under test: CO/N=C(\C(=O)Sc1nc2ccccc2s1)c1csc(N)n1 . Its solubility (mole fraction) was 0.000992

====

Conditions: in isobutanol, 277.67 K
endpoint name: solubility (mole fraction)
Number, no unit, nothing else.

Lookup result for CO/N=C(\C(=O)Sc1nc2ccccc2s1)c1csc(N)n1 ; measured solubility (mole fraction): 0.000148
